Items are presented alongside their recorded abundance fitness.
B1: Retinoic acid receptor RXR-alpha, residues 132 to 208; numbered along this chain, P19793 (parent)
chain: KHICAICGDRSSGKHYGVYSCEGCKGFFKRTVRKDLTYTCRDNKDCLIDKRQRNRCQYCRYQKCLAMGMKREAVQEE

- Variants of: B1
- Measurement Notes: abundance fitness (aPCA) (normalised: wild type 0, dead -1); higher = more abundant; growth selection in yeast, the domain comes from the species named
- Applied Conditions: Homo sapiens

{"Seq Text": "KHICAICGDRSSGKHYLVYSCEGCKGFFKRTVRKDLTYTCRDNKDCLIDKRQRNRCQYCRYQKCLAMGMKREAVQEE [G17L]", "abundance fitness": -0.107}
{"Seq Text": "KHICAICGDRSSGKHYGVYSCEGCKGFFKRTVRKDLTYTCRDCKDCLIDKRQRNRCQYCRYQKCLAMGMKREAVQEE [N43C]", "abundance fitness": -0.115}
{"Seq Text": "KHICAICGDRSSGKHYGVYSCEGCKGFFKRTVRKDLTYTCRDNKDCLIVKRQRNRCQYCRYQKCLAMGMKREAVQEE [D49V]", "abundance fitness": 0.036}
{"Seq Text": "KHICAICGDRSSGVHYGVYSCEGCKGFFKRTVRKDLTYTCRDNKDCLIDKRQRNRCQYCRYQKCLAMGMKREAVQEE [K14V]", "abundance fitness": -0.057}
{"Seq Text": "KHICAICGDRSSGKHYGVYSCCGCKGFFKRTVRKDLTYTCRDNKDCLIDKRQRNRCQYCRYQKCLAMGMKREAVQEE [E22C]", "abundance fitness": -0.043}
{"Seq Text": "KHICAICGDRSSGKHYGVYSCEGRKGFFKRTVRKDLTYTCRDNKDCLIDKRQRNRCQYCRYQKCLAMGMKREAVQEE [C24R]", "abundance fitness": -0.958}
{"Seq Text": "KHICAICGDRSSHKHYGVYSCEGCKGFFKRTVRKDLTYTCRDNKDCLIDKRQRNRCQYCRYQKCLAMGMKREAVQEE [G13H]", "abundance fitness": 0.025}
{"Seq Text": "KHICAICGDRSSGKHYGVYSCEGCKGFFKRTVRKDLTYTCQDNKDCLIDKRQRNRCQYCRYQKCLAMGMKREAVQEE [R41Q]", "abundance fitness": 0.041}
{"Seq Text": "KHICAICGDRSSGKHYGVYSCEGCKGFFKRTVRKDLTYTCRDNKNCLIDKRQRNRCQYCRYQKCLAMGMKREAVQEE [D45N]", "abundance fitness": -0.034}
{"Seq Text": "KHICAICGDRSSGKHYGVYSCEGCKGFFKRTVRKDLTYTCGDNKDCLIDKRQRNRCQYCRYQKCLAMGMKREAVQEE [R41G]", "abundance fitness": 0.095}
{"Seq Text": "KHICAICGDRSSGKHYGVYSCEGCKGFFKRTVRKDLTYTCRDNKHCLIDKRQRNRCQYCRYQKCLAMGMKREAVQEE [D45H]", "abundance fitness": -0.066}
{"Seq Text": "KHICAICGDRSSGKHYGVYSCEGCKGFFKRTVVKDLTYTCRDNKDCLIDKRQRNRCQYCRYQKCLAMGMKREAVQEE [R33V]", "abundance fitness": 0.018}
{"Seq Text": "KHICAICGDRSSGKHYGVYSCEGCKGFFGRTVRKDLTYTCRDNKDCLIDKRQRNRCQYCRYQKCLAMGMKREAVQEE [K29G]", "abundance fitness": 0.025}
{"Seq Text": "KHICAICGDRSSGKHYGVYSCEGCKGFFKRTVRKDLTYTQRDNKDCLIDKRQRNRCQYCRYQKCLAMGMKREAVQEE [C40Q]", "abundance fitness": -0.707}
{"Seq Text": "KHICAICGDRSSGKHYGVYSCDGCKGFFKRTVRKDLTYTCRDNKDCLIDKRQRNRCQYCRYQKCLAMGMKREAVQEE [E22D]", "abundance fitness": -0.062}
{"Seq Text": "KHICAICGDRSSGKHYGVYSCEGCKGFFKRHVRKDLTYTCRDNKDCLIDKRQRNRCQYCRYQKCLAMGMKREAVQEE [T31H]", "abundance fitness": -0.132}
{"Seq Text": "KHICAICGDRSSGKHYGVYSCEGCKGFFKRTFRKDLTYTCRDNKDCLIDKRQRNRCQYCRYQKCLAMGMKREAVQEE [V32F]", "abundance fitness": 0}
{"Seq Text": "KHICAICGDRSSGKHRGVYSCEGCKGFFKRTVRKDLTYTCRDNKDCLIDKRQRNRCQYCRYQKCLAMGMKREAVQEE [Y16R]", "abundance fitness": -0.055}
{"Seq Text": "KHICHICGDRSSGKHYGVYSCEGCKGFFKRTVRKDLTYTCRDNKDCLIDKRQRNRCQYCRYQKCLAMGMKREAVQEE [A5H]", "abundance fitness": 0.044}
{"Seq Text": "KHICAICGWRSSGKHYGVYSCEGCKGFFKRTVRKDLTYTCRDNKDCLIDKRQRNRCQYCRYQKCLAMGMKREAVQEE [D9W]", "abundance fitness": -0.141}
{"Seq Text": "KNICAICGDRSSGKHYGVYSCEGCKGFFKRTVRKDLTYTCRDNKDCLIDKRQRNRCQYCRYQKCLAMGMKREAVQEE [H2N]", "abundance fitness": -0.001}
{"Seq Text": "KHICAICGDRSSGKHYGVYSCEGCKGFFKRTPRKDLTYTCRDNKDCLIDKRQRNRCQYCRYQKCLAMGMKREAVQEE [V32P]", "abundance fitness": -0.298}
